Target under test: BS69/ZMYND11 coiled-coil-MYND tandem domains (BS69_(CC-MYND), residues 440–562) (mouse)
Assay summary: ITC; peptide (~1 mM) titrated into BS69_(MYND) or BS69_(CC-MYND) (~0.1 mM) at 5°C; 20 mM Tris-HCl pH 7.5, 100 mM NaCl, 2 mM DTT; one-site fitting model
Value kind: Kd (µM)

>>> print(df.to_string())
                                     binder  readout_unit  experimental_result
0  H-EAPILFPDDWY-NH2 [EBNA2_(435–445) peptide (NH2-…-CONH2)]            µM                 34.9
